assayedTarget: human OGA (hOGA) (Homo sapiens, UniProt O60502)
Construct: made in house
methodDescription: Inhibition of hOGA-catalysed 4-MUGlcNAc hydrolysis (Ki determination)
Type: biochemical
setupConditions: Michaelis–Menten inhibition analysis; 4-MUGlcNAc, PBS pH 7.4, 37°C; read-out: hOGA Ki
measurementLabel: pKi
Lab note: report pKi as minus log10 of the concentration in molar units, number only.

Dear colleague, I am looking for the recorded pKi of the following compound: OC[C@H]1O[C@@H]2SC(NCC(F)(F)F)=N[C@@H]2[C@@H](O)[C@@H]1O [15h]
6.00

What value of measured pKi is listed for CCCCNC1=N[C@@H]2[C@@H](O)[C@H](O)[C@@H](CO)O[C@@H]2S1 [15e] ?
6.46

I am curious: what pKi value has been reported for OC[C@H]1O[C@@H]2SC(NCC(F)F)=N[C@@H]2[C@@H](O)[C@@H]1O [15g] ?
7.22

###

assayedTarget: human OGA (hOGA) (Homo sapiens, UniProt O60502)
Construct: made in house
methodDescription: Inhibition of hOGA-catalysed 4-MUGlcNAc hydrolysis (Ki determination)
Type: biochemical
setupConditions: graphical determination, Km app against inhibitor concentration (Figure S2A inset); read-out: hOGA Ki
measurementLabel: Ki (nM)
Your answer should be a plain number; it is taken to be in nM.

# get_value(readout='Ki', item= C=CCNC1=N[C@@H]2[C@@H](O)[C@H](O)[C@@H](CO)O[C@@H]2S1 [11b] )
4.7

###

assayedTarget: human OGA (hOGA) (Homo sapiens, UniProt O60502)
Construct: made in house
Sequence (O60502 1-916): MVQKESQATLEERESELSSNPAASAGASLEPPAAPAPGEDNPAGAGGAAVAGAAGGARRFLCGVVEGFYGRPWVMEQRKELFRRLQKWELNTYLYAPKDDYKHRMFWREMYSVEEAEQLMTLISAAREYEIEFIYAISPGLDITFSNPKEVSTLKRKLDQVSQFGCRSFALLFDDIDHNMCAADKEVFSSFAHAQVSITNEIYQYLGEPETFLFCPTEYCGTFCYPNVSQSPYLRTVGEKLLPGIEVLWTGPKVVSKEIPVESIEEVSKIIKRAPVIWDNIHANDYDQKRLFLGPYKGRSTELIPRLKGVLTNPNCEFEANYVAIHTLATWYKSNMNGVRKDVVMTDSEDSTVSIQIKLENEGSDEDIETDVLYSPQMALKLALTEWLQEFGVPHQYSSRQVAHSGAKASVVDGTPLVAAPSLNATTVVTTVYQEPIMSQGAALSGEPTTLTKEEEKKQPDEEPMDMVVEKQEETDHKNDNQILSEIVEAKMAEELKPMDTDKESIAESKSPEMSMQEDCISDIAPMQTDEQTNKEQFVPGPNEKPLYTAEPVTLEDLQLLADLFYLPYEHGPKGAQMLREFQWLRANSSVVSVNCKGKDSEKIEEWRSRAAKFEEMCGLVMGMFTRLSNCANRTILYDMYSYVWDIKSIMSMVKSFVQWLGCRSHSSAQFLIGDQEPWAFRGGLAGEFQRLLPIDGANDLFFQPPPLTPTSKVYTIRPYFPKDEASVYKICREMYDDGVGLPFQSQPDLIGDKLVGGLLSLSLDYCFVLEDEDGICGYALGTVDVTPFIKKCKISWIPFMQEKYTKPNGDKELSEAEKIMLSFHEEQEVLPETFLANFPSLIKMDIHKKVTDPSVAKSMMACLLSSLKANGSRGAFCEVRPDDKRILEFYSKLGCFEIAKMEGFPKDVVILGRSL
methodDescription: Inhibition of hOGA-catalysed 4-MUGlcNAc hydrolysis (Ki determination)
Format: biochemical
setupConditions: Morrison approach; hOGA 10 nM, substrate 60 µM (Figure S2B); read-out: hOGA Ki
measurementLabel: Ki (nM)
Numbers only here, please. The scale is nM.

// lookup Ki for C=CCNC1=N[C@@H]2[C@@H](O)[C@H](O)[C@@H](CO)O[C@@H]2S1 [11b]
3.2

###

assayedTarget: human hexosaminidase B (hHexB) (Homo sapiens, UniProt P07686)
Construct: Micheal Tropak, Hospital for Sick Children, Toronto (gift, not a vendor)
Sequence (P07686 122-556): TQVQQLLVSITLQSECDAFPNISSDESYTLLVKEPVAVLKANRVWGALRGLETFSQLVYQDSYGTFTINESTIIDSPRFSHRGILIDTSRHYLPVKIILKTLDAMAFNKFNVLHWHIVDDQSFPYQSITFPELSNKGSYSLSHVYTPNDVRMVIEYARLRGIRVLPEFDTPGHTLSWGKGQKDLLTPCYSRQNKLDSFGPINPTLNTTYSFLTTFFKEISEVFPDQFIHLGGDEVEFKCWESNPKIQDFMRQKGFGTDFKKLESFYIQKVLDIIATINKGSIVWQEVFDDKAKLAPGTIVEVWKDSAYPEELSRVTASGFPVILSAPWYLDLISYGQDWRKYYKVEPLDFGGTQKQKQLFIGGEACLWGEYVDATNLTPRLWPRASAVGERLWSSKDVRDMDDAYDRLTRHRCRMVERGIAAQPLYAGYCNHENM
methodDescription: Inhibition of human hexosaminidase B (4-MUGlcNAc substrate)
Assay type: biochemical
setupConditions: Michaelis–Menten inhibition analysis (full Ki); pH 4.25, 37°C
measurementLabel: Ki
Value and unit, in that order.

Consider the compound NC1=N[C@@H]2[C@@H](O)[C@H](O)[C@@H](CO)O[C@@H]2S1 [11a] and give its measured Ki.
5 µM

###

assayedTarget: human hexosaminidase B (hHexB) (Homo sapiens, UniProt P07686)
Construct: Micheal Tropak, Hospital for Sick Children, Toronto (gift, not a vendor)
Sequence (P07686 122-556): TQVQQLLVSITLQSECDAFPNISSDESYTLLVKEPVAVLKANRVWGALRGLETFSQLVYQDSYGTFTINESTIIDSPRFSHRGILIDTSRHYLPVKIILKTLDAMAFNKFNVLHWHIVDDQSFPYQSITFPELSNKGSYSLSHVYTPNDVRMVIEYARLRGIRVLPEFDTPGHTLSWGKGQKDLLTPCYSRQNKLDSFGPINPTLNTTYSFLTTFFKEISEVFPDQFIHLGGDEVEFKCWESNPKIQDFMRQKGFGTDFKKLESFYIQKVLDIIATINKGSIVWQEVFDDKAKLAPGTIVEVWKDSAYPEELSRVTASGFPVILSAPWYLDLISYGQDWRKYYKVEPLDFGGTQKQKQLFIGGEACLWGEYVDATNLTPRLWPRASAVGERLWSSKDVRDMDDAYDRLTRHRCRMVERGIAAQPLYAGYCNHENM
methodDescription: Inhibition of human hexosaminidase B (4-MUGlcNAc substrate)
Type: biochemical
setupConditions: Ki hHexB / Ki hOGA, favored selectivity for hOGA
Provide the recorded (hHexB/hOGA) selectivity ratio for the entries that follow.

Looking for the measured (hHexB/hOGA) selectivity ratio of CCCCNC1=N[C@@H]2[C@@H](O)[C@H](O)[C@@H](CO)O[C@@H]2S1 [15e] , can you help?
13 700

Consider the compound OC[C@H]1O[C@@H]2SC(NCCF)=N[C@@H]2[C@@H](O)[C@@H]1O [15f] and give its measured (hHexB/hOGA) selectivity ratio.
12 000

Given C=CCNC1=N[C@@H]2[C@@H](O)[C@H](O)[C@@H](CO)O[C@@H]2S1 [11b] , state its recorded (hHexB/hOGA) selectivity ratio.
950 000

So what does the record say about (hHexB/hOGA) selectivity ratio for CCCNC1=N[C@@H]2[C@@H](O)[C@H](O)[C@@H](CO)O[C@@H]2S1 [15d] ?
1 850 000
